test system: Pseudomonas aeruginosa; assay: Inhibition of IMP-1 in mexAB-deficient Pseudomonas aeruginosa KG5002/pMS363 assessed as MIC of BIPM at 50 ug/ml by microbroth dilution method
measuredParameter: MIC

// MIC lookup, key: Cc1ccc(N2CCC(O)CC2)c(C(=O)O)c1C(=O)O
< 0.25 µg/mL

// MIC lookup, key: O=C(O)c1cccc(N2CCC(O)CC2)c1C(=O)O
< 0.25 µg/mL

// MIC lookup, key: CN(C)c1ccc(N2CCC(O)CC2)c(C(=O)O)c1C(=O)O
< 0.25 µg/mL

// MIC lookup, key: O=C(O)c1c(F)ccc(N2CCC(O)CC2)c1C(=O)O
1 µg/mL

// MIC lookup, key: O=C(O)c1c(N2CCC(O)CC2)ccc(N2CCC(O)CC2)c1C(=O)O
< 0.25 µg/mL

====

tested on: Pseudomonas aeruginosa; assay: Inhibition of IMP-1 in Pseudomonas aeruginosa PAO1/pMS363 assessed as MIC of BIPM at 50 ug/ml by microbroth dilution method
measuredParameter: MIC
Dear colleague, please send the value followed by its unit.

// MIC lookup, key: Cc1ccc(N2CCC(O)CC2)c(C(=O)O)c1C(=O)O
1 µg/mL

// MIC lookup, key: CN(C)c1ccc(N2CCC(O)CC2)c(C(=O)O)c1C(=O)O
1 µg/mL

// MIC lookup, key: O=C(O)c1c(N2CCC(O)CC2)ccc(N2CCC(O)CC2)c1C(=O)O
0.5 µg/mL

// MIC lookup, key: O=C(O)c1cccc(N2CCC(O)CC2)c1C(=O)O
1 µg/mL

// MIC lookup, key: O=C(O)c1c(F)ccc(N2CCC(O)CC2)c1C(=O)O
2 µg/mL
